assay-overview: Chemostability in pH 5.2 and 7.4 buffers and DMEM (LC-ESI-MS)
Assay type: physicochemical
condition-context: pH 7.4 buffer, 37 °C
readout-label: half-life

- compound: "CCc1cc2c(cc1-c1ccn(C(=O)NCCOCCOCCNC(=O)Cn3c(=O)[nH]cc(F)c3=O)n1)C(C)(C)c1[nH]c3cc(C#N)ccc3c1C2=O [geo140, (JH-VII-139-1)–(5-FU) conjugate]"
  half-life: "> 48 h"

Okay, next one:
The reported value for COc1cc(/C=C(\C#N)C(=O)Nc2nnc(C(F)(F)F)s2)ccc1OCc1ccc(NC(=O)CNC(=O)OC[C@H]2O[C@@H](n3ccc(N)nc3=O)C(F)(F)[C@@H]2O)cc1 in terms of half-life is > 48 h
